assay: PK in rats, intravenous administration; type: in vivo; conditions: male, Sprague-Dawley, 3 mg/kg, rat plasma
Quantity measured: AUC (ng·h/mL)
Record the value in ng·h/mL, omitting the unit from your answer.

Ask: If you can, please state the reported AUC value of COC(C)(C)c1cc(S(=O)(=O)NC(=O)Nc2c3c(cc4c2CCC4)CCC3)nn1C [Example 39] .
Result: 3840

---

experiment: PK in rats, oral administration; assay type: in vivo; conditions: male, Sprague-Dawley, 3 mg/kg, rat plasma
Where a name gives a salt, the structure may show the parent alone.
Quantity measured: Tmax
I'd appreciate it if you included the unit after the number.

CCn1ccc(S(=O)(=O)NC(=O)Nc2c3c(cc4c2CCC4)CCC3)n1 [Example 45, sodium salt] ... 2 h

Now take the following compound into account.
Ask: Value lookup for Tmax; key = COC(C)(C)c1cc(S(=O)(=O)NC(=O)Nc2c3c(cc4c2CCC4)CCC3)nn1C [Example 39]
Result: 0.83 h

---

assay: PK in rats, oral administration; assay type: in vivo; settings: male, Sprague-Dawley, plasma, 1.3 mg/kg, rat
Quantity measured: CL/F

Ask: // CL/F lookup, key: COC(C)(C)c1cc(S(=O)(=O)NC(=O)Nc2c(C(C)C)cc(Cl)cc2C(C)C)nn1C
Result: 8.5 mL/min/kg

---

assay: PK in rats, oral administration; format: in vivo; conditions: male, Sprague-Dawley, plasma, 3 mg/kg, rat
Quantity measured: bioavailability

Ask: Give the measured bioavailability of COC(C)(C)c1cc(S(=O)(=O)NC(=O)Nc2c3c(cc4c2CCC4)CCC3)nn1C .
Result: > 100%

---

assay: PK in rats, intravenous administration; assay type: in vivo; conditions: male, Sprague-Dawley, plasma, 3 mg/kg, rat
Quantity measured: clearance (mL/min/kg)
# value in mL/min/kg; strip the unit string

Ask: Looking for the measured clearance of COC(C)(C)c1cc(S(=O)(=O)NC(=O)Nc2c3c(cc4c2CCC4)CCC3)nn1C [Example 39] , can you help?
Result: 13.1

---

molecular target: NLRP3 (Homo sapiens, UniProt Q96P20); experiment: THP-1 cells pyroptosis assay (LPS + nigericin, resazurin read-out); type: cell-based; set-up: Seed THP-1 cells (25,000 cells/well) containing 1.0 μg/ml LPS; host or cells: THP-1 cells; settings: NLRP3 inhibitory activity, 1 μg/ml LPS, 5 μM nigericin
Sequence (Q96P20 whole entry): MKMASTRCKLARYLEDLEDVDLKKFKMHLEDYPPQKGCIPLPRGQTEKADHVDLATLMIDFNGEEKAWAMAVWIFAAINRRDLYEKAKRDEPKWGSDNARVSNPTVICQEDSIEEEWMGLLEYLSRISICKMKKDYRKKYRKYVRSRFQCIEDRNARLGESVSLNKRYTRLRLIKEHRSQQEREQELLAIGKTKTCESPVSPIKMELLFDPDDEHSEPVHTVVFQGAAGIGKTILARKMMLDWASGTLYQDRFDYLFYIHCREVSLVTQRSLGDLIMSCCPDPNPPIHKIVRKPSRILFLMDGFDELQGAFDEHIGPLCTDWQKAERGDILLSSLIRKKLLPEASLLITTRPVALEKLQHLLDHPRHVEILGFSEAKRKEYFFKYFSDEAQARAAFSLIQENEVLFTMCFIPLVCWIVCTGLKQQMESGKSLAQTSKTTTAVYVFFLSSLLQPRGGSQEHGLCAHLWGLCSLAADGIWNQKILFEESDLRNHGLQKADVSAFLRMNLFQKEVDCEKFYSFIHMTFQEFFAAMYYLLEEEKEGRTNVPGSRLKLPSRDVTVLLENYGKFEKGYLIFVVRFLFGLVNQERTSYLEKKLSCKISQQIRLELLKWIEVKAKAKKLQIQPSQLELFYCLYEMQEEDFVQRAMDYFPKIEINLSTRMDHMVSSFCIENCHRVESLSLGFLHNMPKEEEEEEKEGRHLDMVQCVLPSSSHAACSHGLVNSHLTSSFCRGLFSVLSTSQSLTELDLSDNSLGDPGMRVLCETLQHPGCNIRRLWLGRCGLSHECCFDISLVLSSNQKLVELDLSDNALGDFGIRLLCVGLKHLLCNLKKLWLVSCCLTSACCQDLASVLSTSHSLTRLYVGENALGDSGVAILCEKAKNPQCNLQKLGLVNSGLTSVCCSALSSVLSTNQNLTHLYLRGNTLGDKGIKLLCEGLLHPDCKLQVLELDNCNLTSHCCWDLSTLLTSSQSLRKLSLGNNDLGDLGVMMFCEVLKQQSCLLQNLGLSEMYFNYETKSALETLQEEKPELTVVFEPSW
Quantity measured: IC50

CC(C)c1cc(F)cc(C(C)C)c1CC(=O)NS(=O)(=O)c1ccc2ccccc2c1 ... 1000 to 5000 nM

Ask: Which IC50 is reported for this molecule? CC(C)(O)c1coc(S(=O)(=O)NC(=O)Cc2cccc(I)c2)c1
Result: 5000 to 10000 nM

Ask: Look at this molecule and give its reported IC50. CC(C)c1cc(F)cc2c1C(C(=O)NS(=O)(=O)c1cc(C(C)(C)O)cs1)CC2(C)C (single isomer, unassigned) [Example 8]
Result: 500 to 1000 nM

Ask: Look up IC50 for this molecule: CC(C)c1cc(F)cc(C(C)C)c1CC(=O)NS(=O)(=O)c1ccn(C(C)C)n1
Result: 1000 to 5000 nM

---

Biological target: NLRP3 (Homo sapiens, UniProt Q96P20)
Experiment: THP-1 cells pyroptosis assay (LPS + nigericin, resazurin read-out)
Format: cell-based
Set-up: Seed THP-1 cells (25,000 cells/well) containing 1.0 μg/ml LPS; host or cells: THP-1 cells
Conditions: NLRP3 inhibitory activity, 1 μg/ml LPS, 5 μM nigericin
Method: The cells were routinely passaged and grown to confluency (˜10^6 cells/ml). On the day of the experiment, THP-1 cells were harvested and resuspended into RPMI medium (without FBS). The cells were then counted and viability (>90%) checked by Trypan blue (Sigma #T8154). […] To this diluted cell solution was added LPS (Sigma #L4524) to give a 1 μg/ml Final Assay Concentration (FAC). 40 μl of the final preparation was aliquoted into each well of a 96-well plate. […]
Where a name gives a salt, the structure may show the parent alone.
Quantity measured: IC50

Solved cases (10 shown):
CC(C)c1cc(F)cc(C(F)(F)F)c1NC(=O)NS(=O)(=O)c1ccn(C(C)C)n1 [Example 70] ... 5000 to 10000 nM
CN(C)Cc1ccc(S(=O)(=O)NC(=O)Nc2c3c(cc4c2CCC4)CCC3)cc1 [Example 66, sodium salt] ... < 250 nM
CC(C)c1cc(F)cc2c1C(C(=O)NS(=O)(=O)c1ccn(C3CC3)n1)CCC2(C)C (stereo not shown) [Example 6] ... 1000 to 5000 nM
COc1cc(-c2ccc3c(c2CC(=O)NS(=N)(=O)C2CN(C(C)C)C2)CCC3)ccn1 (stereo not shown) [Example 25] ... 5000 to 10000 nM
COC(C)c1cc(S(=O)(=O)NC(=O)Nc2c3c(cc4c2CCC4)CCC3)nn1C (stereo not shown) [Example 53] ... < 250 nM
CC(C)n1ccc(S(=O)(=O)NC(=O)Nc2c3c(c(Cl)c4c2CCC4)CCC3)n1 [Example 35] ... < 250 nM
CC(C)c1cccc(C(C)C)c1NC(=O)NS(=O)(=O)c1cnn(C(C)C)c1 [Example 69] ... 500 to 1000 nM
COc1cc(-c2ccc3c(c2NC(=O)N[S+]([O-])c2ccn(C(C)C)n2)CCC3)ccn1 (stereo not shown) [Example 23] ... 1000 to 5000 nM
O=C(Nc1c2c(cc3c1CCC3)CCC2)NS(=O)(=O)c1cc[nH]n1 [Example 13, potassium salt] ... 1000 to 5000 nM
CC(C)n1nc(S(=O)(=O)NC(=O)Nc2c3c(cc4c2CCC4)CCC3)cc1F [Example 62, sodium salt] ... < 250 nM

Ask: Query (molecule): CC(C)n1ccc(S(=O)(=O)NC(=O)Nc2c3c(cc4c2CCC4=O)CCC3)n1 [Example 31, sodium salt] ; field requested: IC50
Result: 1000 to 5000 nM

Ask: Record request: IC50 value, item CC(C)c1cc(F)cc(C(C)C)c1NC(=O)NS(=O)(=O)c1ccn(CC(F)(F)F)n1 [Example 78, sodium salt]
Result: 1000 to 5000 nM
